# EXPERIMENTAL SYSTEM: recombinant human integrin αvβ6 (Homo sapiens (Human), UniProt P06756+P18564)
# Sequence (P06756 31-889): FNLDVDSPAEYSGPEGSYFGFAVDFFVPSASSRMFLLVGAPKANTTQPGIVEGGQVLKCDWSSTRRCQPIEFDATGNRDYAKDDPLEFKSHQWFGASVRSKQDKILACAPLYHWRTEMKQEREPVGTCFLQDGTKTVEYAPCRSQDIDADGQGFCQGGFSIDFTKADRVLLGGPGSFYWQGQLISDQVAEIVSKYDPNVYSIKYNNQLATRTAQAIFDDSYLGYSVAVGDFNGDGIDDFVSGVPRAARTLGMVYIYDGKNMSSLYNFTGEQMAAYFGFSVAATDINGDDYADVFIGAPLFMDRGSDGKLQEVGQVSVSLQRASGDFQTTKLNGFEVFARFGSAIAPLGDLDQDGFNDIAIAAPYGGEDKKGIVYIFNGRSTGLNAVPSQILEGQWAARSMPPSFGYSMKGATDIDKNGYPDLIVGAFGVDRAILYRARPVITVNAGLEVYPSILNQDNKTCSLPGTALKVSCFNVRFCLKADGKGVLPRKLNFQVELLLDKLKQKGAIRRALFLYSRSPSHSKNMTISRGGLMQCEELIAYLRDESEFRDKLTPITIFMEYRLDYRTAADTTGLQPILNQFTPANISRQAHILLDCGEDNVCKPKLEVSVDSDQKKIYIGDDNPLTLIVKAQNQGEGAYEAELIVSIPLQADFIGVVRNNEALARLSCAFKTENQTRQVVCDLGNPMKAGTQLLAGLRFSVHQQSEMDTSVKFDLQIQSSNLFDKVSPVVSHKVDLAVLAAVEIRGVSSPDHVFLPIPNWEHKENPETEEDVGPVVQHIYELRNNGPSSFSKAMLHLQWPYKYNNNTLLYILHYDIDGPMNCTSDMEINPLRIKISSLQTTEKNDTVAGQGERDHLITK
# Sequence (P06756 890-992 partner): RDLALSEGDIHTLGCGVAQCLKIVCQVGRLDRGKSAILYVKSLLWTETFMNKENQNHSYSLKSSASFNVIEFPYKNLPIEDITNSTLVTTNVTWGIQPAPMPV
# Sequence (P18564 22-707): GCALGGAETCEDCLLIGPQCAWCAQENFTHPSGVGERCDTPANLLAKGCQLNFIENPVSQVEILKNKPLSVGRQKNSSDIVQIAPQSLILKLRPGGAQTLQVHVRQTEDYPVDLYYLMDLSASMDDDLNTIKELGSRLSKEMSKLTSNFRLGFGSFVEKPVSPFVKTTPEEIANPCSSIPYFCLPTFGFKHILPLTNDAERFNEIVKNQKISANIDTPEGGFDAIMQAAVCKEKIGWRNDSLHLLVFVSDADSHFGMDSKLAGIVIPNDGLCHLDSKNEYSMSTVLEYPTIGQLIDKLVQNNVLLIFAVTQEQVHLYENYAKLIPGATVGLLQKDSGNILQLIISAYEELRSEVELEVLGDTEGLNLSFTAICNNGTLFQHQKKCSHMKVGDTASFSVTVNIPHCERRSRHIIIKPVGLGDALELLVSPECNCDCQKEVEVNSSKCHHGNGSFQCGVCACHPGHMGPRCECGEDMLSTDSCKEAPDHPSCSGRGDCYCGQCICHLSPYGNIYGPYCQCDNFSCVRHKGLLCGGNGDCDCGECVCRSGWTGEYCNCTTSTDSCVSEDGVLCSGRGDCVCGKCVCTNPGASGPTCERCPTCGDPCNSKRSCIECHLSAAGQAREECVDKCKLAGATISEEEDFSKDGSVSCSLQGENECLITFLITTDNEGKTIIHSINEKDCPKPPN
# METHOD NOTES: Solid phase integrin αvβ6 binding assay
# COND: IC50 presented in four ranges; read-out: αvβ6 Inhibition IC50 (nM) - range
Listing of entries alongside the reported IC50.

Query :: May I ask what IC50 has been recorded for O=C(O)[C@H](CCN(CCCCc1ccc2c(n1)NCCC2)CC(F)F)Nc1ccnc(C(F)(F)F)n1 ?
Result :: > 1000 nM

Query :: Cool, now CS(=O)(=O)CCN(CCCCc1ccc2c(n1)NCCC2)CC[C@H](Nc1ncc(Br)cn1)C(=O)O
Result :: > 1000 nM

Query :: Cool, now COc1ccc2c(N[C@@H](CCN(CCCF)CCCCc3ccc4c(n3)NCCC4)C(=O)O)ncnc2c1
Result :: < 50 nM

Query :: Cool, now CO[C@H](C)CN(CCCCc1ccc2c(n1)NCCC2)CC[C@H](Nc1nc(C)nc2ccccc12)C(=O)O
Result :: < 50 nM

====

# METHOD NOTES: Unbound plasma concentration in the PET/CT study
# Assay type: in vivo
# COND: human, 120 mg, Subject B120, 120 mg
# Experimental: This Example was conducted as an open-label, single-dose (60 mg, 120 mg, 240 mg or 320 mg) clinical trial evaluating αvβ6 receptor occupancy in the lungs, safety, and pharmacokinetics of Compound #5 in subjects with IPF. […] Knottin tracer uptake kinetics were compared pre- and post-dose of the disclosed compound, as measured by standardized uptake values (SUVs) and parameters estimated from kinetic modeling in regions-of-interest on dynamic [^18F]FP-R01-MG-F2 PET/CT scans. […]
ENDPOINT LABEL: concentration at 4 h (nM)
Provide the reading as a plain figure in nM.

Query :: May I ask what concentration at 4 h has been recorded for COCCN(CCCCc1ccc2c(n1)NCCC2)CC[C@H](Nc1ncnc2ccccc12)C(=O)O [Compound 5] ?
Result :: 10
